A set of compounds tested on Cytochrome P450 3A4 (Homo sapiens), with measured AC50:
outcome_measure: AC50

COc1ccc2[nH]c3c(NCCCN4CCCC4=O)ncnc3c2c1 17.8 µM (inconclusive)
O=c1ccn([C@@H]2O[C@@H](COP(=O)(O)OP(=O)(O)O)[C@H](O)[C@@H]2O)c(=O)[nH]1 0.794 µM (inconclusive)
Cc1cccc(NC(=O)Cn2cccc2)c1 22.4 µM (inconclusive)
COCCCNC(=O)C1CCN(S(=O)(=O)N(CC(C)C)CC(C)C)CC1 22.4 µM (inconclusive)
COc1ccc(NC(=O)N2CC[C@@]3(CCCN(C(=O)c4csnn4)C3)C2)cc1 31.6 µM (inconclusive)
COc1ccc(O[C@H]2C=C[C@@H](c3ccccc3)O[C@@H]2CON=C(C)C)cc1 3.98 µM (inconclusive)
O=C(Nc1ccccc1)c1ccccc1CC[N+](=O)[O-] 7.94 µM (inconclusive)
CCOC(=O)c1nn(-c2ccccc2)c(-c2ccccc2)c1C(=O)c1ccccc1 15.8 µM (inconclusive)
N#Cc1cccc(NC(=O)N2CCCC3(CCN(C(=O)Oc4ccccc4)CC3)C2)c1 12.6 µM (inconclusive)
CCc1ccc(NC(=O)CSc2nc3cc(C(=O)OC)ccc3c(=O)n2Cc2ccco2)cc1 3.98 µM (inconclusive)
O=C(Nc1ccc(Cl)c(Cl)c1)N1CCC(N2CCCCC2)CC1 22.4 µM (inconclusive)

====

// values below are reported EC50
assay: inhibitors of intracellular T. cruzi replication, confirmation, NIH3T3 host cells, beta-gal luminescence (AID 2044); assay type: functional, cell-based;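 note: intracellular parasites grown in NIH/3T3 mouse fibroblasts as host cells; luminescent beta-galactosidase reporter signal from transgenic T. cruzi replicating inside host cells; inhibitors lower the luminescence signal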
The source made the active and inactive calls.
outcome_measure: EC50

molecule	measured_value
Cc1cc(C)cc(Nc2c([N+](=O)[O-])nn(-c3ccc4c(c3)OCCO4)[n+]2[O-])c1	160 nM (active)
Cc1ccc(NS(=O)(=O)c2ccc(Cl)c(C(=O)Nc3ccccc3-c3nc4ccccc4[nH]3)c2)cc1C	2490 nM (active)
Oc1c(CN2CCOCC2)cc(COCc2ccccc2)c2cccnc12	1260 nM (active)
O=C1c2ccc3c4c(ccc(c24)C(=O)N1CCCCO)C(=O)N(CCCCO)C3=O	2250 nM (active)
Cc1cc(C)n2nc(-c3ccsc3-n3c(C)ccc3C)cc2n1	2770 nM (active)
CCOC(=O)/C(=N\Nc1ccc(Cl)cc1)c1csc(Nc2ccccc2)n1	1480 nM (active)
Cc1nn(Cc2cccc(Oc3ccccc3)c2)c(C)c1NC(=O)NC12CC3CC(CC(C3)C1)C2	1290 nM (active)
CCOC(=O)c1c(-c2ccccc2)oc2ccc(OCC(O)CNCCN(C)C)cc12 (stereo unspecified)	1790 nM (active)
c1ccc2c(NC3C4CC5CC(C4)CC3C5)nc(N3CCOCC3)nc2c1 (stereo unspecified)	1390 nM (active)
O=C(CCC1CCCN(Cc2ccc3c(c2)CCO3)C1)NCc1ccc(F)c(F)c1 (stereo unspecified)	< 100 nM (active)
Cc1ccc(SCCN2CCN(Cc3ccccc3)CC2)cc1	549 nM (active)

====

IC50 overview
molecular target: Aminopeptidase N (Plasmodium falciparum FcB1/Columbia, UniProt O96935); assay: P. falciparum M1AAP inhibitors, biochemical, fluorogenic H-Leu-NHMec substrate, 1536-well (AID 1445); design: species or system Plasmodium falciparum 3D7, 3D7
Sequence (O96935 whole entry): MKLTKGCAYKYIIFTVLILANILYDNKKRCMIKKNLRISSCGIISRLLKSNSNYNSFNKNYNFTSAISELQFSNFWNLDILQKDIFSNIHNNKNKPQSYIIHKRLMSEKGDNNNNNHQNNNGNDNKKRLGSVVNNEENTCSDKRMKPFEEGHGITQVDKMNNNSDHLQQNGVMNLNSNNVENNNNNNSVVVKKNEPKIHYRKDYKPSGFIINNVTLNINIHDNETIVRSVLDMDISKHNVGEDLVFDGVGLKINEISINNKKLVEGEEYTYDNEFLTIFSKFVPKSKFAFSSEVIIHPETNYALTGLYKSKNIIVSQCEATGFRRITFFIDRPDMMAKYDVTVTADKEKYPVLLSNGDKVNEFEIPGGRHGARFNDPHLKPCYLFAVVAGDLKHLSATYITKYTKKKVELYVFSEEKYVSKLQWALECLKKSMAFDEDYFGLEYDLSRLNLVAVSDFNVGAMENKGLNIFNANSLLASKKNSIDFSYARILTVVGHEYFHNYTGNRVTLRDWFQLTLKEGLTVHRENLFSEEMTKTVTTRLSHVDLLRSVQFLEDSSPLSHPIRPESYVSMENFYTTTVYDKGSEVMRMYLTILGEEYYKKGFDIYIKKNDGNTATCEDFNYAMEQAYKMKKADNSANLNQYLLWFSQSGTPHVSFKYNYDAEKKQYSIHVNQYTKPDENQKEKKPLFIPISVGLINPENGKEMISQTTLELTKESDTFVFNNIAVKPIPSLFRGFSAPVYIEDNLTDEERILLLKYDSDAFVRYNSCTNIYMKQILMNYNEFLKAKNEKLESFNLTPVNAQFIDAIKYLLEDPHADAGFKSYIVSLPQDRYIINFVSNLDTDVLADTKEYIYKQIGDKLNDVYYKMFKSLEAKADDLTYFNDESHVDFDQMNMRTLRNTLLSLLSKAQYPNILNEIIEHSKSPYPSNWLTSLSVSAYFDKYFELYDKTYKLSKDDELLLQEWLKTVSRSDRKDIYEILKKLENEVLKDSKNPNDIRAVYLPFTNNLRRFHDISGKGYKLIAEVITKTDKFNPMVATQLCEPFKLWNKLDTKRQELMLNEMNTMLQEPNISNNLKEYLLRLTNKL
Activity calls are given as the source filed them.
outcome_measure: IC50

COc1ccccc1NS(=O)(=O)c1cccc(N2C(=O)/C(=C\Nc3ccccc3C(=O)O)c3ccccc3C2=O)c1 30.4 µM (active)
O=C1N=C(NS(=O)(=O)c2ccccc2)S/C1=C1\C(=O)Nc2ccccc21 25.1 µM (active)
CSc1nnc(-c2ccccc2/N=C/c2c(C)nn(-c3ccc4ccccc4c3)c2O)c(O)n1 31.9 µM (active)
CCn1c(CNC(=O)c2cccs2)nnc1SCC(=O)Nc1cc(Cl)ccc1C 6.86 µM (active)
COCCNc1oc(/C=C/c2ccccc2)nc1C#N 36.7 µM (active)
O=C(O)c1cccc(N2C(=O)c3cccc4c(Cl)ccc(c34)C2=O)c1 83.3 µM (active)
N#Cc1cc2c(nc1SCc1ccccc1)CCCC2=O 86.4 µM (active)
CN(C)Cc1c(O)c(Cl)cc2c3c(c(=O)oc12)CCCC3 30.1 µM (active)
O=C(Nn1c(SCc2ccc(F)cc2)nc2ccsc2c1=O)c1ccccc1 55.6 µM (active)
